Let's look at some variants and their measured exon inclusion enrichment index.
B1: mRNA-splicing (parent)
chain: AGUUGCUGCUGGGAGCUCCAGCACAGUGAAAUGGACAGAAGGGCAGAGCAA

Variants of: B1
Test: exon inclusion enrichment index; higher = more inclusion; WT1 exon 5 minigene, HEK293
Write the value as a bare number.

# example entries with known answers
{"columns": ["residue_string", "result_value"],
 "data": [
  ["AGUUGACGACGGGAGCUCCAGCACAGUGAAAUGGACAACAGGGCAGAGCAA [C6A U7C C9A U10C G38A A39C]", 2.55],
  ["AGUUCACACAGGGAGCUCCAGCACAGUAUAAUGGACAGAAGGGCAGAGCAA [G5C C6A U7C G8A U10A G28A A29U]", 0.0236],
  ["AGUUCGCGCCGGGAGCUCCAUUACAGUGAAAUGGACAGAAGGGCAGAGCAA [G5C C6G U7C U10C G21U C22U]", 1.36],
  ["AGUUUCUUUGGGGAGCUCCAGCACAGUGAAAUGGACAGAAGGGCAGAGCAA [G5U G8U C9U U10G]", 0.095],
  ["AGUUACCACCGGGAGCUCCAGCACAGUAGAAUGGACAGAAGGGCAGAGCAA [G5A U7C G8A U10C G28A A29G]", 1.02]
]}

Q) What value of exon inclusion enrichment index has been reported for the following variant? AGUUUCUUUUGGGAGCUCCAGCACAGUGAAAUGCUCAGAAGGGCAGAGCAA [G5U G8U C9U G34C A35U]
A) 0.00745

Q) What value of exon inclusion enrichment index has been reported for the following variant? AGAGCACACAGGGAGCUCCAGCACAGUGAAAUGGACAGAAGGGCAGAGCAA [U3A U4G G5C C6A U7C G8A U10A]
A) 0.0901

Q) What value of exon inclusion enrichment index has been reported for the following variant? AGUUACCACCGGAUGCUCCAGCACAGUGAAAUGGACAGAAGGGCAGAGCAA [G5A U7C G8A U10C G13A A14U]
A) 2.87

Q) What value of exon inclusion enrichment index has been reported for the following variant? AGUUCACACAGGGAUUUCCAGCACAGUGAAAUGGACAGAAGGGCAGAGCAA [G5C C6A U7C G8A U10A G15U C16U]
A) 0.0659

Q) What value of exon inclusion enrichment index has been reported for the following variant? AGUUGCUGCUGGGAGCCACAGCACAGUGAAAUGGACAGAAGGGCAGAGCAA [U17C C18A]
A) 1.29

Q) What value of exon inclusion enrichment index has been reported for the following variant? AGUUCGCGCCGGUCGCUCCAGCACAGUGAAAUGGACAGAAGGGCAGAGCAA [G5C C6G U7C U10C G13U A14C]
A) 1.67

Where these numbers come from: the RNAGym collection of RNA variant scans (doi:10.1101/gr.219683.116)
